# EXPERIMENT_SUMMARY: Single layer film element contrast (gamma) reduction by DI(A)R couplers, KODAK FLEXICOLOR C-41
# CONDITION_INFO: DIR tested at 0.055 mmol/m^2, relative to non-inhibitor containing check
# Description: The mild inhibitor fragments that are used in this invention are defined as those that cause less than a 45% gamma reduction, or more preferably less than a 40% gamma reduction, relative to a non-inhibitor containing check when coated as the following single layer film element on a cellulose triacetate film support (coverages are in g/m^2): Overcoat Gelatin at 2.79 and 0.02 bis-vinylsulfonemethylether Imaging Layer Gelatin at 2.79 Magenta Image Coupler M-1 (dispersed at 80% by […]
Record form. Attribute: % Contrast Reduction. Fill in for each entry.
Numbers only, in %.

Before answering, review these 10 worked examples.
CCCCCCCCCCCCOC(=O)C(C)OC(=O)c1ccc(Cl)c(NC(=O)C(C(=O)Nc2cc(C(=O)OC(C)C(=O)OCCCCCCCCCCCC)ccc2Cl)n2nnc3cc(Cl)c(Cl)cc32)c1 (centres unmarked) [IDIR-7] = -20.0
CCCCCCCCCCCCCCCCS(=O)(=O)Nc1ccc(Cl)c(NC(=O)C(C(=O)C(C)(C)C)n2ncc(SCC(=O)OCCCCCC)n2)c1 (centres unmarked) [CDIR-11] = -58.6
CCCCCCOC(=O)c1nn(C2C(=O)N(c3ccc(NC(=O)C(CC)Oc4ccc(C(C)(C)CC)cc4C(C)(C)CC)cc3)N=C2C)nc1C (centres unmarked) [CDIR-8] = -49.2
CCCCCCCCCCCCCCOc1ccccc1NC(=O)c1cc(Sc2nnnn2-c2ccccc2)c2ccccc2c1O [CDIR-6] = -75.4
CCCCCCCCCCCCCCOc1ccccc1NC(=O)c1cc(Sc2nnnn2CC)c2ccccc2c1O [IDIR-8] = -2.4
CCCCCCCCCCCCCCCCS(=O)(=O)Nc1ccc(Cl)c(NC(=O)C(Oc2ccc([N+](=O)[O-])cc2CN(CC)C(=O)Sc2nnnn2-c2ccccc2)C(=O)C(C)(C)C)c1 (centres unmarked) [CDIR-7] = -63.9
CCCCCCCCCCCCCCOc1ccccc1NC(=O)c1cc(Oc2ccc([N+](=O)[O-])cc2CN(C(=O)Sc2nnnn2-c2ccccc2)C(C)C)c2ccccc2c1O [CDIR-3] = -75.7
CCCCCCCCCCCCCCOc1ccccc1NC(=O)c1cc(Oc2ccc(CSc3nnnn3-c3ccccc3)cc2[N+](=O)[O-])c2ccccc2c1O [CDIR-4] = -77.1
CCC(Oc1ccc(C(C)(C)CC)cc1C(C)(C)CC)C(=O)Nc1ccc(N2N=C(N3CCCC3)C(Sc3nnnn3-c3ccccc3)C2=O)cc1 (centres unmarked) [CDIR-2] = -67.1
CCCCCCCCCCCCCCOc1ccccc1NC(=O)c1cc(Oc2ccc(CSc3nnnn3-c3ccccc3)cc2[N+](=O)[O-])c2ccccc2c1O [CDIR-5] = -70.5

Item under review: CCCCCCCCCCCCCCCCS(=O)(=O)Nc1ccc(Cl)c(NC(=O)C(C(=O)C(C)(C)C)n2nc(C)c(C(=O)OCCCCCC)n2)c1 (centres unmarked) [CDIR-10] . Reported % Contrast Reduction?
-53.8

Just for reference, patent US6190848A is where these values come from.
